System: DIV14
ASSAY NOTES: qHTS profiling for inhibitors of Plasmodium falciparum proliferation (AID 504749); note: nearly all actives have a fitted effect of over 60% in size
ASSAY CONTEXT: P. falciparum in erythrocytes, SYBR Green DNA, 72 h; series mostly up to 28.7 µM
Inconclusive results are not listed. Activity calls are given as the source filed them. Calls come from the whole dose curve; as a rule, active = well fitted inhibition curve with a large enough effect; inconclusive = small, poorly fitted or top-dose-only effect; inactive = flat fitted curve, though single readings scatter.
Possible outcomes: label 1 = active, label 0 = inactive

>  <MOLECULE>
Cc1cc(C)cc(C(=O)OC2CC3CCC(C2)N3C)c1 (stereo not given)

>  <TARGET SYSTEM>
DIV14

>  <GROUP LABEL>
label 1

$$$$
>  <MOLECULE>
OC[C@@H](O)[C@H]1O[C@@H]2OC(C(Cl)(Cl)Cl)O[C@H]2[C@H]1O (stereo not given in full)

>  <TARGET SYSTEM>
DIV14

>  <GROUP LABEL>
label 0

$$$$
>  <MOLECULE>
CC1OC(O[C@H]2C[C@@H](O)[C@]3(CO)[C@@H]4C(CC[C@]3(O)C2)[C@@]2(O)CC[C@H](C3=CC(=O)OC3)[C@@]2(C)C[C@H]4O)C(O)C(O)C1O (stereo not given in full)

>  <TARGET SYSTEM>
DIV14

>  <GROUP LABEL>
label 0

$$$$
>  <MOLECULE>
CCOC(=O)c1cncn1[C@@H](C)c1ccccc1

>  <TARGET SYSTEM>
DIV14

>  <GROUP LABEL>
label 0

$$$$
>  <MOLECULE>
COc1ccc2c3c1O[C@H]1[C@@H](O)C=C[C@H]4C(C2)NCCC341 (stereo not given in full)

>  <TARGET SYSTEM>
DIV14

>  <GROUP LABEL>
label 0

$$$$

---

System: DIV17
ASSAY NOTES: qHTS profiling for inhibitors of Plasmodium falciparum proliferation (AID 504749); note: nearly all actives have a fitted effect of over 60% in size; note: potency is the fitted concentration of half-maximal effect
ASSAY CONTEXT: P. falciparum in erythrocytes, SYBR Green DNA, 72 h; series mostly up to 28.7 µM
Description: NIH National Institute of Allergy and Infectious Diseases [NIAID] NIH Chemical Genomics Center [NCGC] […] Because mature erythrocytes lack DNA, only Plasmodium-derived DNA is detected. NCGC Assay Protocol Summary: The SYBR Green viability assay was adapted from a method described previously (Plouffe et al., 2008). […] The following morning, fluorescence intensity at 485(14) nm excitation and 535(25) nm emission wavelengths was measured on an EnVision (Perkin Elmer) plate reader. […]
Inconclusive results are not listed. Activity calls are given as the source filed them. Calls follow the shape of the dose curve; as a rule, active = well fitted inhibition curve with a large enough effect; inconclusive = small, poorly fitted or top-dose-only effect; inactive = flat fitted curve, though single readings scatter.

>  <COMPOUND>
CC12CCC3C4CCC(=O)C(O)=C4CCC3C1CCC2OC(=O)CCC1CCCC1 (stereo unspecified)

>  <Potency>
inactive

$$$$
>  <COMPOUND>
C[C@@H]1CC[C@H]2[C@@H](C)C(=O)O[C@@H]3OC4(C)CC[C@@H]1C32OO4 (stereo partly specified)

>  <Potency>
9.5 nM (active)

$$$$
>  <COMPOUND>
CCCN1CCCC2Cc3nc(N)ncc3CC21 (stereo unspecified)

>  <Potency>
inactive

$$$$
>  <COMPOUND>
CC1OC(O[C@H]2C[C@@H](O)[C@]3(CO)[C@@H]4C(CC[C@]3(O)C2)[C@@]2(O)CC[C@H](C3=CC(=O)OC3)[C@@]2(C)C[C@H]4O)C(O)C(O)C1O (stereo partly specified)

>  <Potency>
inactive

$$$$
>  <COMPOUND>
C[C@]12C=CC(=O)C=C1CC[C@@H]1C2CC[C@]2(C)OC(=O)CCC12 (stereo partly specified)

>  <Potency>
inactive

$$$$
>  <COMPOUND>
CC1(C)S[C@@H]2[C@H](N)C(=O)N2C1C(=O)O (stereo partly specified)

>  <Potency>
inactive

$$$$
